- tested.on: homogenate of the brain of the AD patient (tau aggregates or amyloid β aggregates)
- protocol.summary: In vitro binding test, homogenate of the brain of the AD patient
- condition.parameters: [18F]SPAL-T-06 5 nM displaced by non-labeled SPAL-T-06 0.01 nM to 1 μM; frontal cortex; room temperature 30 minutes
pIC50: −log10 of the molar value.
readout: pIC50

{"compound": "CNc1cnc(C#C/C=C/c2nc3ccc(OCC(O)C[18F])cc3s2)cn1 (stereo not shown) [[^18F]SPAL-T-06]", "quantitative.result": 7.96}

----------
- tested.on: homogenate of the brain of the DLB patient which was rich in α-synuclein lesions (Homo sapiens, UniProt P37840)
- Construct: α-synuclein aggregates formed in the brain of the DLB patient; cerebellum of MSA patient
- protocol.summary: In vitro binding test, homogenate of the brain of the DLB patient
- condition.parameters: [18F]SPAL-T-06 5 nM displaced by non-labeled SPAL-T-06 0.01 nM to 1 μM; amygdala; room temperature 30 minutes
pIC50: −log10 of the molar value.

{"compound": "CNc1cnc(C#C/C=C/c2nc3ccc(OCC(O)C[18F])cc3s2)cn1 (stereo not shown) [[^18F]SPAL-T-06]", "pIC50": 8.80}

The reported measurements were obtained from patent US12630544B2.
